# test method notes: Cytotoxicity test (MTT assay)
# Type: cell-based
# details: human, normal hepatic LO2 cells, 10 µM, read-out: cell viability
experimental readout: viability at 48 h, 10 µM
Just the number plus its unit, please.

[Q] viability at 48 h, 10 µM lookup needed for O=C(SC1=NC(c2ccc(Cl)cc2)=CC(c2ccco2)N1)c1ccccc1CN1C(=O)c2ccccc2C1=O (stereo not shown) [Compound 10i] , thanks.
[A] 74.6%

---

# pIC50 per entry for DPP-8 (Homo sapiens)
pIC50: −log10 of the molar value.

[Q] Item under review: CN(C)c1ccc(C2C=C(c3ccc(Br)cc3)N=C(SC(=O)c3ccccc3CN3C(=O)c4ccccc4C3=O)N2)cc1 (stereo not shown) [Compound 10e] . Reported pIC50?
[A] < 4.00

[Q] Name the recorded pIC50 for O=C(SC1=NC(c2ccc(Cl)cc2)=CC(c2ccccc2)N1)c1ccccc1CN1C(=O)c2ccccc2C1=O (stereo not shown) [Compound 10f] .
[A] < 4.00

[Q] What value of pIC50 has been reported for the following molecule? O=C(SC1=NC(c2ccc(Cl)cc2)=CC(c2ccc(Cl)cc2)N1)c1ccccc1CN1C(=O)c2ccccc2C1=O (stereo not shown) [Compound 10c]
[A] < 4.00

[Q] State the recorded pIC50 for this entry: O=C(SC1=NC(c2ccccc2)=CC(c2ccccc2)N1)c1ccccc1CN1C(=O)c2ccccc2C1=O (stereo not shown) [Compound 10a]
[A] < 4.00
